targetOrTestSystem: human EHMT2 913-1193 (Homo sapiens)
assayInfo: EHMT2 enzyme assay on histone peptide substrate (3H-SAM SPA)
testContext: EHMT2 IC50, recombinant human EHMT2 913-1193, histone peptide substrate
pIC50: −log10 of the molar value.
propertyLabel: pIC50

Param item: CNc1cc(C)nc(Nc2cc3c(c(C4=CCNCC(O)C4)c2Cl)OCC3)n1 (single isomer, unassigned) [Compound 384] ; param system: human EHMT2 913-1193 (Homo sapiens); output pIC50: > 7.00

Param item: CNc1nc(Nc2cc3c(c(OCCCN4CCCC4)c2)OCC3)nc(C)c1F ; param system: human EHMT2 913-1193 (Homo sapiens); output pIC50: < 5.70

Param item: [2H]Cc1cc(NC([2H])([2H])[2H])nc(Nc2cc3c(c(C4=CCN(C)CCC4)c2)OCO3)n1 ; param system: human EHMT2 913-1193 (Homo sapiens); output pIC50: > 7.00

Param item: [2H]Cc1nc(Nc2cc3c(c(C4=CCNCCC4)c2)OCC3)nc(NCC([2H])([2H])[2H])c1F ; param system: human EHMT2 913-1193 (Homo sapiens); output pIC50: 5.70 to 6.30

====

Give pIC50 for every item shown.
Tested on: H3K9me2 in HCT116 cells
assayInfo: HCT116 H3K9me2 in-cell western assay
Format: cell-based
testContext: Homo sapiens, HCT-116, 72 h, HCT116 cells, 72 hours incubation; read-out: H3K9me2 ICW IC50
pIC50: −log10 of the molar value.

pIC50 in this record for CNc1cc(C)nc(Nc2cc3c(c(C4=CCN(C)CC(O)C4)c2Cl)OCCC3)n1 (single isomer, unassigned) [Compound 402] : > 7.00

pIC50 in this record for [2H]C([2H])([2H])CNc1nc(Nc2cc3c(c(C4=CCN(C)CCC4)c2F)OCC3)nc(C)c1F [Compound 261] : 6.30 to 7.00

pIC50 in this record for CNc1cc(Nc2cc3c(c(C4=CCN(C)CCC4)c2F)OCC3)nc(C)c1F [Compound 255] : > 7.00

pIC50 in this record for CNc1cc(C)nc(Nc2cc3c(c(C4=CCN(C)CCC4)c2)CCO3)n1 [Compound 333] : 5.70 to 6.30

pIC50 in this record for CNc1nc(Nc2cc3c(c(C4=CCN(C)CCC4)c2)OCC3)nc(C)c1F [Compound 267] : 6.30 to 7.00

pIC50 in this record for [2H]Cc1nc(Nc2cc3c(c(C4=CCN(C)CCC4)c2)OCC3)nc(NC)c1F [Compound 218] : 6.30 to 7.00

pIC50 in this record for [2H]C([2H])([2H])CNc1cc(C)nc(Nc2cc3c(c(C4=CCNCCC4)c2)OCC3)n1 [Compound 300] : 6.30 to 7.00

pIC50 in this record for CNc1cc(C)nc(Nc2cc3c(c(C4=CCNCCC4)c2)OCC3)c1 [Compound 288] : 6.30 to 7.00

pIC50 in this record for CNc1cc(C)nc(Nc2cc3c(c(C4=CCNCCC4)c2F)OCC[C@@H]3C)n1 (single isomer, unassigned) [Compound 415] : > 7.00

pIC50 in this record for CNc1nc(Nc2cc3c(c(C4=CCN(C)CCC4)c2F)OCC3)nc(C)c1Cl [Compound 215] : 6.30 to 7.00

pIC50 in this record for CNc1cc(C)nc(Nc2cc3c(c(C4=CCNCC(O)C4)c2Cl)OCCC3)n1 (single isomer, unassigned) [Compound 407] : > 7.00

pIC50 in this record for CNc1cc(C)nc(Nc2cc3c(c(C4=C[C@H]5CNC[C@H]5C4)c2)OCC3)n1 (racemic) [Compound 133] : 5.70 to 6.30

pIC50 in this record for [2H]Cc1cc(NC([2H])([2H])[2H])nc(Nc2cc3c(c(C4=CCN(C)CCC4)c2F)OCC3)n1 [Compound 234] : > 7.00

pIC50 in this record for CNc1cc(C)nc(Nc2cc3c(c(C4=CCN(CC(F)F)CCC4)c2F)OCC3)n1 [Compound 199] : 6.30 to 7.00

pIC50 in this record for [2H]Cc1cc(NC)nc(Nc2cc3c(c(C4=CCN(C)CCC4)c2)OCO3)n1 [Compound 265] : > 7.00

====

targetOrTestSystem: human EHMT1 982-1266 (Homo sapiens, UniProt Q9H9B1)
Sequence (Q9H9B1 982-1266): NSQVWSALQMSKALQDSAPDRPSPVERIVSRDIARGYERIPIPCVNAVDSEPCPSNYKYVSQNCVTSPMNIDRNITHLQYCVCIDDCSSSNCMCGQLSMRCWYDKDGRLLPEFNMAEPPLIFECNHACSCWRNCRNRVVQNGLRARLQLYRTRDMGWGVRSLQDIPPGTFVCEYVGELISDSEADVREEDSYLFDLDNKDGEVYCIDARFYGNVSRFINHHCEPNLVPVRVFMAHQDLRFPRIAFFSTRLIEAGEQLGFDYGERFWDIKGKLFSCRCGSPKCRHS
assayInfo: EHMT1 enzyme assay on histone peptide substrate (3H-SAM SPA)
testContext: EHMT1 IC50, recombinant human EHMT1 982-1266, histone peptide substrate
Give IC50 for every item shown.

IC50 in this record for [2H]C([2H])([2H])N1CC=C(c2cc(Nc3nc(C)cc(NC)n3)cc3c2OCC3)CCC1 : < 100 nM

IC50 in this record for CNc1cc(C)nc(Nc2cc3c(c(C4=CCN(C)CC(O)C4)c2F)OCC3)n1 (single isomer, unassigned) [Compound 352] : < 100 nM

IC50 in this record for Cc1cc(NCC2CCCO2)nc(Nc2cc3c(c(C4=CCN(C)CCC4)c2)OCC3)n1 (stereo not shown) : 100 to 500 nM

IC50 in this record for CNc1cc(C)nc(Nc2cc3c(c(C4C[C@H]5CNC[C@H]5C4)c2F)OCC3)n1 (stereo partly shown) : 500 to 2000 nM

IC50 in this record for [2H]Cc1cc(NC)nc(Nc2cc3c(c(C4=CCNCCC4)c2)OCO3)n1 : < 100 nM

IC50 in this record for [2H]Cc1cc(NCC([2H])([2H])[2H])nc(Nc2cc3c(c(C4=CCN(C)CCC4)c2F)OCC3)n1 : < 100 nM

IC50 in this record for [2H]C([2H])([2H])CNc1nc(Nc2cc3c(c(C4=CCNCCC4)c2F)OCC3)nc(C)c1F : 100 to 500 nM

====

targetOrTestSystem: human EHMT2 913-1193 (Homo sapiens, UniProt Q96KQ7)
Sequence (Q96KQ7 913-1193): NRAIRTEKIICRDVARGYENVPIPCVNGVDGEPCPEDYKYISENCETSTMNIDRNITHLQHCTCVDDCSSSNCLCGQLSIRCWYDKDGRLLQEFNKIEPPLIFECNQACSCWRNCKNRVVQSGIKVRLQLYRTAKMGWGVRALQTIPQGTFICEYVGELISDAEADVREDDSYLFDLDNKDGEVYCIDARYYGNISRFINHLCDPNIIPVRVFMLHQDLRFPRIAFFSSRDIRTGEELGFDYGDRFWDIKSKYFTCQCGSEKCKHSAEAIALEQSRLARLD
assayInfo: EHMT2 enzyme assay on histone peptide substrate (3H-SAM SPA)
testContext: EHMT2 IC50, recombinant human EHMT2 913-1193, histone peptide substrate
pIC50: −log10 of the molar value.
propertyLabel: pIC50

pIC50 in this record for [2H]C([2H])([2H])N1CC=C(c2c(F)c(Nc3nc(C)cc(NC)n3)cc3c2OCC3)CCC1 : > 7.00

pIC50 in this record for [2H]Cc1cc(NC([2H])([2H])[2H])nc(Nc2cc3c(c(C4=CCN(C)CCC4)c2)OCCO3)n1 : 6.30 to 7.00

pIC50 in this record for Cc1cc(N)nc(Nc2cc3c(c(OCCCN4CCCC4)c2)OCC3)n1 : < 5.70

pIC50 in this record for CNc1cc(C)nc(Nc2cc3c(c(C4=CCNC(CF)CC4)c2F)OCC3)n1 (single isomer, unassigned) [Compound 371] : > 7.00

====

targetOrTestSystem: hERG potassium channels (Homo sapiens)
Sequence (Q12809 whole entry): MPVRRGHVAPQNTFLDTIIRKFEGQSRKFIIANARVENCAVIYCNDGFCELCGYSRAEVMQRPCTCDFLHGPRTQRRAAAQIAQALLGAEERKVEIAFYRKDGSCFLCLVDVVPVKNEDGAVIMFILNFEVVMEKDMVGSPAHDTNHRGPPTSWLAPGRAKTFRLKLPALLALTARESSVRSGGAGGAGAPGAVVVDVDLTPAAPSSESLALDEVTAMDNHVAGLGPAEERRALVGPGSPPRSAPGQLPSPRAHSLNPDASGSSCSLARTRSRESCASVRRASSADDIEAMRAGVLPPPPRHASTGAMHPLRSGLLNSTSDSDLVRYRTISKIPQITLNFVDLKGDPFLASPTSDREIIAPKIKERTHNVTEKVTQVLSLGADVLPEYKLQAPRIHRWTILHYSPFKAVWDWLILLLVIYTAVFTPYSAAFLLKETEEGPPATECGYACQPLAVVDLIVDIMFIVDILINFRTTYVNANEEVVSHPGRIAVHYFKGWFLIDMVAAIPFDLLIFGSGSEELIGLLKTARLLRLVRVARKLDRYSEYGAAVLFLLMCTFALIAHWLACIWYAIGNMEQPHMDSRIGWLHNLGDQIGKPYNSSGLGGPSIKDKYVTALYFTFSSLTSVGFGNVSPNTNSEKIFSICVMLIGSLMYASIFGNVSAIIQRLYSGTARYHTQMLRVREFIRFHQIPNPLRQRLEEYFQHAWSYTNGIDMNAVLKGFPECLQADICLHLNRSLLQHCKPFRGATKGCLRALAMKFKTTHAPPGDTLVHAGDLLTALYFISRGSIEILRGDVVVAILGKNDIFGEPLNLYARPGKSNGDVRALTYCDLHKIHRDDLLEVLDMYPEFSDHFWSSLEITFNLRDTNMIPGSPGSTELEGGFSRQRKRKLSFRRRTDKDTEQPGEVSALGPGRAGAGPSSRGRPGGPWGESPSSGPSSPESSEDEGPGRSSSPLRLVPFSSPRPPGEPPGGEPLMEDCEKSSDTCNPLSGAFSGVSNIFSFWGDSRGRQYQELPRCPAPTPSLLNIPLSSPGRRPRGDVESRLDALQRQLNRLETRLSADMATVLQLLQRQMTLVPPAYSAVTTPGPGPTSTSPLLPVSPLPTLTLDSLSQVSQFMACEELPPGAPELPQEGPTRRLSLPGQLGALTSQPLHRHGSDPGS
assayInfo: In vitro hERG assay (SyncroPatch whole-cell recording)
testContext: hERG IC50, SyncroPatch, room temperature
pIC50: −log10 of the molar value.
propertyLabel: pIC50

pIC50 in this record for CNc1cc(C)nc(Nc2cc3c(c(C4=CCNCCC4)c2)OCO3)n1 : 5.00 to 5.30

pIC50 in this record for CNc1cc(C)nc(Nc2cc3c(c([C@H]4C[C@H]5CNC[C@H]5C4)c2)OCC3)n1 : < 5.00

pIC50 in this record for CNc1cc(C)nc(Nc2cc3c(c(C4=CCNCCC4)c2Cl)OCO3)n1 : 5.00 to 5.30

pIC50 in this record for CNc1cc(C)nc(Nc2cc3c(c(C4=CCN(C)CCC4)c2Cl)OCCC3)n1 : 5.30 to 5.70

pIC50 in this record for CNc1cc(C)nc(Nc2cc3c(c(C4=CCN(C)CC(O)C4)c2F)OCC3)n1 (stereo not drawn) : < 5.00

pIC50 in this record for CNc1cc(C)nc(Nc2cc3c(c(C4=CCNCC(O)C4)c2F)OCC3)n1 (stereo not drawn) [Compound 179] : < 5.00

pIC50 in this record for CNc1cc(C)nc(Nc2cc3c(c(C4=CCNCCC4)c2F)OCC3)c1 : < 5.00

pIC50 in this record for CNc1cc(C)nc(Nc2cc3c(c(C4=CCNCC(O)C4)c2C)OCC3)n1 (single isomer, unassigned) : < 5.00

pIC50 in this record for CNc1ccnc(Nc2cc3c(c(C4=CCN(C)CCC4)c2)OCC3)n1 : < 5.00

Source of measurements: patent US20240368139A1
